# ASSAY OVERVIEW: yeast display, Sf9 membrane polyspecificity reagent, FACS + sequencing; frameworks hold sequencing errors
MEASUREMENT LABEL: polyreactivity (PSR sort gate)

QVQLVESGGGLVQAGGSLRLSCAAYGRILRYYAMGWYRQAPGKERELVASITSGGSTYYADSVKGRFTISRDNAKNTVYLQMNSLKPEDTAVYYCAARNIYRVDLSYYAYDYWGQGTQVTVSS high polyreactivity
QVQLVESGGGLVQAGGSLRLSCAASGITFYRYAMGWYRQAPGKERELVAAITRSVGRTYYADSVKGRFTISRDNAKNTVYLQMNSLKPEDTAVYYCAADSPYYRGDYYWGLGTQVTVSS high polyreactivity
QVQLVESGGGLVQAGGSLRLSCAASGSIFADYAMGWYRQAPGKERELVAAITSGGSTYYADSVKGRFTISRDNAKNTVYLQKNSLKPEDTAVYYCAADWAFSRFAYQTDIYEYWGQGTQVTVSS low polyreactivity
QVQLVESGGGLVQAGGSLRLSCAASGRTFRYNAMGWYRQAPGKERELVATISSSGGSTSYADSVKGRFTISRDNAKNTVYLQMNSLKPEDTAVYYCAADEWGVRSEYDYWGQGTQVTVSS low polyreactivity
QVQLVESGGGIVQAGGSLRLSCAASGSIFADYAMGWYRQAPGKERELVAVISRRGGTTYYADSVKGRFTISRDNAKNSVYLQMNSLKPEDTAVYYCAARRSFNEYDYWGQGTQVTVSS high polyreactivity

Q) I have this sequence here, QVQLVESGGGLVQAGGSLRVSFAASGLTFFQYGMGWYRQAPGKERELVASITRSRGRTNYADSVKGRFTISRDNAKYTVYLQMNSLKPEDTAVYYCAAYYYGSSAYGYGYNYWGQGTQVTVSS , and I need its recorded polyreactivity (PSR sort gate).
A) high polyreactivity

Q) I have this sequence here, QVQLVESGGGLVQAGGSLRLSCAASGSTFYQYVMGWYRQAPGKERELVADITNGGSTYYADSVKGRFTISRDNAKNTVYLQMNSLKPEDTAVYYCAADGGYYWYTYWYGGLYYWGQGTQVTVSS , and I need its recorded polyreactivity (PSR sort gate).
A) high polyreactivity

Q) I have this sequence here, QVQLVESGGGLVQAGGSLRLSCAASGSIFAVNAMGWYRQAPGKERELVAAITSGGNTYYADSVKGRFTISRDNAKNTVYLQMNSLKPEDTAVYYCATVFSVQGWYFGMNYWGQGTQVTVSS , and I need its recorded polyreactivity (PSR sort gate).
A) low polyreactivity

Q) I have this sequence here, QVQLVESGGGLDQAGGCLRLSCAASGRIFKYNAMGWYRQAPGTERELVAAISWNGDSTYYADSVKGRFTISRDIAKYTVYLQMNRLKPEDTAVYYCAVTGDYDMEYWGQGTQVTVSS , and I need its recorded polyreactivity (PSR sort gate).
A) low polyreactivity

Q) I have this sequence here, QVQLVESGGGLVQAGGSLRLICAASGFIFASNAMGWYRQAPGTERELVASITRGGTTKYADSVKGRFTISRDNAKNTVYLQMNSLKPEDTAVYYCAKRYVRFPWRMDYWGQGTQVTVSS , and I need its recorded polyreactivity (PSR sort gate).
A) high polyreactivity

Q) I have this sequence here, QVQLVESGGGLVQAGGSLRLSCAASGSTFSPNAMGWYRQAPGKERELVAAISGSGGSTYYADSVKGRFTISRDNAKNTVYLQMNSLKPEDTAVYYCAADSYYDGDYWGQGTQVTVSS , and I need its recorded polyreactivity (PSR sort gate).
A) low polyreactivity
